For each of the molecules below, state its I (%) at 400 μg/L.
Molecular target: UniProt P12791
Sequence (P12791 1-491 isoform P12791-2 with the stated changes): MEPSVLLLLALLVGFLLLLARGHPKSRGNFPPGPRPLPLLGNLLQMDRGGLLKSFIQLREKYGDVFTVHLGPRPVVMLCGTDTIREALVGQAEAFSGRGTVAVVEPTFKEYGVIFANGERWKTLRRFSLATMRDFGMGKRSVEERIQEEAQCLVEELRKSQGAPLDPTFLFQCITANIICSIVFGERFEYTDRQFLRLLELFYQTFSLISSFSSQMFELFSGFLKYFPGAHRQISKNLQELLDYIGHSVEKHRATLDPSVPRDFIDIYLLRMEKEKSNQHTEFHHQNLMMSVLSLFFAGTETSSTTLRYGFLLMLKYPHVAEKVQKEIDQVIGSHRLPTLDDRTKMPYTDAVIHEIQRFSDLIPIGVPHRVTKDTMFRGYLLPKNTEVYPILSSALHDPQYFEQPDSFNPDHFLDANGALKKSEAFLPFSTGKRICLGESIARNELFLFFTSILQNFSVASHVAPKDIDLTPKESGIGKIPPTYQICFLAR
Assay: Pesticides screening using CYP2B10 inhibition assay (MOBFC fluorescence, Example 1)
Type: biochemical
Design: purchased Cypex Limited; bacterial membranes, E. coli by own knowledge
Conditions: 400 μg/L pesticide; 15 pmol/mL CYP2B10; 10 μM MOBFC; 10% acetonitrile standard
Please respond with the number in % and leave the unit unwritten.

Q: What value of I (%) at 400 μg/L has been recorded for this entry: COP(=S)(OC)Oc1nc(Cl)c(Cl)cc1Cl [Chlorpyrifos-methyl]
Result: 77.9

Q: Param item = CCCN(CCOc1c(Cl)cc(Cl)cc1Cl)C(=O)n1ccnc1 [Prochloraz] ; retrieve measured I (%) at 400 μg/L.
Result: 72.0

Q: // query I (%) at 400 μg/L value for entry CCOP(=S)(OCC)Oc1nc(Cl)c(Cl)cc1Cl [Chlorpyrifos-ethyl]
Result: 46.8

Q: I am curious: what I (%) at 400 μg/L value has been reported for OC(c1ccc(Cl)cc1)(c1ccc(Cl)cc1)C(Cl)(Cl)Cl [Dicofol] ?
Result: 30.6

---

Target: CYP2B11 (Canis lupus familiaris, UniProt P24460)
Sequence (P24460 whole entry): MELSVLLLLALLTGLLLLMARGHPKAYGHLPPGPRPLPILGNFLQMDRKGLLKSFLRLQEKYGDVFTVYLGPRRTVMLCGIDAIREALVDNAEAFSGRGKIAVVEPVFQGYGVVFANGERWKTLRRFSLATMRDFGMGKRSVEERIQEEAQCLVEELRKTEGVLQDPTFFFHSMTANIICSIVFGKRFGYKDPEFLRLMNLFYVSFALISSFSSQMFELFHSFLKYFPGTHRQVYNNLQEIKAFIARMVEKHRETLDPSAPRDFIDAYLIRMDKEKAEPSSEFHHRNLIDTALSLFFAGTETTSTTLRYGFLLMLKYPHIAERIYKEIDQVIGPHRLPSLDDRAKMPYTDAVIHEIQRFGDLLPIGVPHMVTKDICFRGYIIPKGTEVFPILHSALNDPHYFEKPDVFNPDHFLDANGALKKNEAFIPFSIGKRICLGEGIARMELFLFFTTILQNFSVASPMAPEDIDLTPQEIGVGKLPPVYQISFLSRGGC
Test: Pesticides screening using CYP2B11 inhibition assay (BOMCC fluorescence, Example 4)
Details: 400 μg/L pesticide; 5 pmol/mL CYP2B11; 3 μM BOMCC
Procedure: This assay was performed in a 96-well plate by adding 50 μL of chemical standard of pesticides in duplicate, previously prepared in assay buffer with 5% acetonitrile. […] The plate was incubated for 60 minutes at 37° C., and the fluorescence was monitored using 410/460 nm as excitation and emission wavelengths, respectively. […]
Measurement name: I(%)

Q: Using the record for OC(c1ccc(Cl)cc1)(c1ccc(Cl)cc1)C(Cl)(Cl)Cl , report its I(%).
Result: 79.0%

Q: Give the measured I(%) of N#Cc1c(Cl)c(Cl)c(Cl)c(C#N)c1Cl .
Result: 62.3%

Q: Query: I(%); subject: CCOP(=S)(OCC)Oc1cc(C)nc(C(C)C)n1
Result: 84.1%

Q: Entry under review: CCCN(CCOc1c(Cl)cc(Cl)cc1Cl)C(=O)n1ccnc1 . Reported I(%)?
Result: 94.6%

Q: Look at this compound and give its reported I(%). CC1(C)C(C=C(Cl)Cl)C1C(=O)OC(C#N)c1cccc(Oc2ccccc2)c1 (stereo not drawn)
Result: 17.5%

Q: If you can, please state the reported I(%) value of COP(=S)(OC)Oc1nc(Cl)c(Cl)cc1Cl .
Result: 96.0%

Q: Name the reported I(%) value associated with the compound CC12CC1(C)C(=O)N(c1cc(Cl)cc(Cl)c1)C2=O (stereo not drawn)
Result: 24.5%

Q: Find the recorded I(%) belonging to CCOP(=S)(OCC)Oc1nc(Cl)c(Cl)cc1Cl and report it.
Result: 94.2%

Q: Query: I(%); subject: CCCC(Cn1cncn1)c1ccc(Cl)cc1Cl (stereo not drawn)
Result: 87.8%

Q: Which I(%) is listed for CC(C)NC(=O)N1CC(=O)N(c2cc(Cl)cc(Cl)c2)C1=O ?
Result: 15.9%

Q: I'd like to know its I(%). The compound in question is Clc1ccc(C(c2ccc(Cl)cc2)C(Cl)(Cl)Cl)cc1
Result: 70.7%

Q: What does the data say about its I(%)? Entry: Fc1ccc(Oc2ccnc3cc(Cl)cc(Cl)c23)cc1
Result: 18.1%
